- METHOD: AUC (2 to 24 hrs) in Sprague-Dawley rat whole blood at 10 mg/kg, po by LC/MS/MS analysis
- Format: ADME, organism-based
- Parameters: time upper 24 hr, time lower 2 hr, dose 10 mg/kg, route oral
MEASURE_NAME: AUC(0-t) (ng·h/mL)
Numbers only, in ng·h/mL.

Exercise: Consider the compound C/C=C/C[C@@H](C)[C@@H](O)[C@H]1C(=O)N[C@@H](CC)C(=O)N(C)C(SCCN(C)C)C(=O)N(C)[C@@H](CC(C)(C)O)C(=O)N[C@@H](C(C)C)C(=O)N(C)[C@@H](CC(C)C)C(=O)N[C@@H](C)C(=O)N[C@H](C)C(=O)N(C)[C@@H](CC(C)C)C(=O)N(C)[C@@H](CC(C)C)C(=O)N(C)[C@@H](C(C)C)C(=O)N1C (single isomer, unassigned) . State its measured AUC(0-t).
Solution: 18000
